What pull-down binding Z-score was measured for each of the following?
# System: TO-3-N3-2 (biotin conjugate)
# Method: pull-down binding Z-score (relative to library population); higher = stronger binding
# Reported conditions: RNA library: Library-2
Answer using only a numeral; do not append any unit.

## Input Provide measured pull-down binding Z-score on TO-3-N3-2 (biotin conjugate) for UUUUGCCAUUACUUUUACAGGCAAAA [hsa-mir-548aa-1] please.
## Output -0.412

## Input Provide measured pull-down binding Z-score on TO-3-N3-2 (biotin conjugate) for GACGUGAAGGGACCACAUCCCGCUUCAUGUC [hsa-mir-4697] please.
## Output -0.362

## Input Provide measured pull-down binding Z-score on TO-3-N3-2 (biotin conjugate) for UGGCUUGCACCGUGACUCCCUCUCACCAAGCAAGUGUC [hsa-mir-4440] please.
## Output 0.0231

## Input Provide measured pull-down binding Z-score on TO-3-N3-2 (biotin conjugate) for UGGUUACGUGUUUGAUGGUUAAUCA [hsa-mir-376a-2] please.
## Output -0.0388

## Input Provide measured pull-down binding Z-score on TO-3-N3-2 (biotin conjugate) for GCUGUUGGUACCAAUUUACCUUUACAGC [SHAPE_invitro_SARS-CoV-2_Motif_335] please.
## Output -0.037

----------
What pull-down binding Z-score was measured for each of the following?
# Test system: TO-N3 (biotin conjugate)
# Method: pull-down binding Z-score (relative to library population); higher = stronger binding
# Reported conditions: RNA library: Library-2
Answer using only a numeral; do not append any unit.

## Input Input UGAGUGAUGACUCAGGCGACUCCA [hsa-mir-338] , output reported pull-down binding Z-score.
## Output 0.461

## Input Input GGCGAAUCUGGCGCC [IAV_invivo_NP_5_Motif_7+IAV_invivo_NP_5_Motif_7] , output reported pull-down binding Z-score.
## Output 0.493

## Input Input AAAAUUCAUGGCCUACAGCUGCCUCUUGCCAAACUGCACUGGAUUUU [hsa-mir-5010] , output reported pull-down binding Z-score.
## Output -0.482

## Input Input GCUAACUGUGACCUUAGC [hsa-mir-4729] , output reported pull-down binding Z-score.
## Output -0.187

## Input Input AUUGUUGCCUCUGCAUGUUACAAU [hsa-mir-8066] , output reported pull-down binding Z-score.
## Output -0.485

## Input Input GUGGAGUCGGGUCAGACUUCAA [hsa-mir-378c] , output reported pull-down binding Z-score.
## Output -0.0868

## Input Input GCUUCCACAAGUGCUUUUGUGGAAACUGUGAAAGGUUUGGAUUAUAAAGCAUUCAAACAAAUUGUUGAAUCCUGUGGUAAUUUUAAAGUUACAAAAGGAAAAGC , output reported pull-down binding Z-score.
## Output -0.508

## Input Input CCCCGCGCGCGGACAGACACACGGACAAGUCCCGCCAGGGG [hsa-mir-4492] , output reported pull-down binding Z-score.
## Output 1.59

## Input Input AGAUGAGUUUAUGUUUUAUCCAACU [hsa-mir-193b] , output reported pull-down binding Z-score.
## Output -0.416

## Input Input UCAGGGAGAAAGUGCAUACAGCCCCUG [hsa-mir-328] , output reported pull-down binding Z-score.
## Output -0.112

----------
# System: G-clamp-N3 (biotin conjugate)
# Method: pull-down binding Z-score (relative to library population); higher = stronger binding
# Reported conditions: RNA library: Library-1 (pre-miRNA loops + repeats)
Think of -0.1 as a floor: if pull-down binding Z-score stands on it or above, it is Satisfied; beneath it, Not satisfied.

## Input Is the recorded value of pull-down binding Z-score equal to or greater than -0.1 for this sequence? GGGCUGCCCGGGCCGGUCGACCAGCGCGCCGUAGCUCC [hsa-mir-6724-2_6724-3_6724-1_6724-4]
## Output Satisfied

## Input Is the recorded value of pull-down binding Z-score equal to or greater than -0.1 for this sequence? AGACUCUGGAUUUUACACUUGGAGUG [hsa-mir-887]
## Output Not satisfied

## Input Is the recorded value of pull-down binding Z-score equal to or greater than -0.1 for this sequence? CUGUGGUUUGCUGGCUGCCUCAG [hsa-mir-6736]
## Output Not satisfied

## Input Is the recorded value of pull-down binding Z-score equal to or greater than -0.1 for this sequence? UUUUGCUAUUACUUUUAAAGGCAAAA [hsa-mir-548e]
## Output Not satisfied

## Input Is the recorded value of pull-down binding Z-score equal to or greater than -0.1 for this sequence? GUUUAUUUUGUAGC [hsa-mir-4317]
## Output Not satisfied

## Input Is the recorded value of pull-down binding Z-score equal to or greater than -0.1 for this sequence? AUUGUUGUGGGGUAGGGAUAUUAGGCCCCAAUUAGAAGAUAACUAU [hsa-mir-98]
## Output Satisfied

## Input Is the recorded value of pull-down binding Z-score equal to or greater than -0.1 for this sequence? GGGCCCCAAGACUCGGGGUUU [hsa-mir-4651]
## Output Not satisfied

## Input Is the recorded value of pull-down binding Z-score equal to or greater than -0.1 for this sequence? GUUGGAUGGUCUAAUUGUGAAGCUCCUAAC [hsa-mir-141]
## Output Not satisfied

## Input Is the recorded value of pull-down binding Z-score equal to or greater than -0.1 for this sequence? CCCUAGGACUUACUUGUGCAGGG [hsa-mir-4253]
## Output Not satisfied

## Input Is the recorded value of pull-down binding Z-score equal to or greater than -0.1 for this sequence? AAGAGGAGGUGGUUGUUUUCCUCCUCUU [hsa-mir-627]
## Output Satisfied

## Input Is the recorded value of pull-down binding Z-score equal to or greater than -0.1 for this sequence? CCAAAUUUCAUGCG [hsa-mir-4454]
## Output Not satisfied

----------
# Test system: TO-N3-2 (biotin conjugate)
# Method: pull-down binding Z-score (relative to library population); higher = stronger binding
# Reported conditions: RNA library: Library-2
Assay readout: pull-down binding Z-score
Answer using only a numeral; do not append any unit.

## Input Input AGUCCGUGCAUCCGCCCUUCGAUGCUUGGGUU [hsa-mir-3182] , output reported pull-down binding Z-score.
## Output 0.421

## Input Input CCAAGGUUGUGCUUUUAGGAAAUGUUGGCUGUCCUGCGG [hsa-mir-5739] , output reported pull-down binding Z-score.
## Output 0.49

## Input Input UGGCUUGCACCGUGACUCCCUCUCACCAAGCAAGUGUC [hsa-mir-4440] , output reported pull-down binding Z-score.
## Output 0.607

## Input Input GUGCCACUCCAUGGCAC , output reported pull-down binding Z-score.
## Output -0.862

## Input Input UGAGUGCCGACUGGCGCCUG [hsa-mir-4750] , output reported pull-down binding Z-score.
## Output 0.446

## Input Input UACAUAGUUCAUGCUGAGGCCGGGAUUUCAUGCAGAAAACUGGUUGCAAAAGGUGCUGAAG [hsa-mir-6085] , output reported pull-down binding Z-score.
## Output 1.13

## Input Input UGACGAUGCUGUUGUGUGUUUCAAUAGCACUUAUGCAUCUCA [SHAPE_invitro_SARS-CoV-2_Motif_289] , output reported pull-down binding Z-score.
## Output -0.71

## Input Input GUGAGAGAGAGCCGGAACCCAGGGAAUGCUGAGUUCGAAGAUCUCAC [IAV_invivo_NP_5_Motif_14+IAV_invivo_NP_5_Motif_14] , output reported pull-down binding Z-score.
## Output 1.5

## Input Input AGUCACUUAGAUUACAUGUGACU [hsa-mir-888] , output reported pull-down binding Z-score.
## Output -0.915

----------
# Test system: TO-3-N3-2 (biotin conjugate)
# Method: pull-down binding Z-score (relative to library population); higher = stronger binding
# Reported conditions: RNA library: Library-2
Assay readout: pull-down binding Z-score

## Input Provide measured pull-down binding Z-score on TO-3-N3-2 (biotin conjugate) for AGUCAUAACAAGAGAAGUGGGUUUUGUCGUGCCUGGUUUGCCUGGCACGAUAUUACGCACAACUAAUGGUGACU [DMSMaPseq_invitro_SARS-CoV-2_Motif_162] please.
## Output -0.178

## Input Provide measured pull-down binding Z-score on TO-3-N3-2 (biotin conjugate) for AGCCAAAAUCACCAGGGA [hsa-mir-4534] please.
## Output 0.118

## Input Provide measured pull-down binding Z-score on TO-3-N3-2 (biotin conjugate) for UGCCCUAGCGGCU [hsa-mir-4268] please.
## Output -0.708

## Input Provide measured pull-down binding Z-score on TO-3-N3-2 (biotin conjugate) for GCUGAAAUUGUUGACACUGUGAGUGCUUUGGUUUAUGAUAAUAAGCUUAAAGCACAUAAAGACAAAUCAGC please.
## Output -0.129

## Input Provide measured pull-down binding Z-score on TO-3-N3-2 (biotin conjugate) for CUUUGAUAAAGCUGGUCAAAAGACUUAUGAAAG please.
## Output -0.4

## Input Provide measured pull-down binding Z-score on TO-3-N3-2 (biotin conjugate) for CAAUCAUGUAUAACUAAAUUUGAUUG [hsa-mir-514a-2_514a-3] please.
## Output -0.513

## Input Provide measured pull-down binding Z-score on TO-3-N3-2 (biotin conjugate) for GGUGGGUGGGAAGUAAGAUCUGACCUGGACUCCAUCCCACCCACC [hsa-mir-4640] please.
## Output 4.64

## Input Provide measured pull-down binding Z-score on TO-3-N3-2 (biotin conjugate) for GUGGGUCAAGUUUAGAGAUGCACCAAC [hsa-mir-490] please.
## Output 0.519

## Input Provide measured pull-down binding Z-score on TO-3-N3-2 (biotin conjugate) for CUCGCUGGGAGGUGUGCUAUCGUCUUCCCCGGGAG [hsa-mir-3689d-1] please.
## Output -0.13

## Input Provide measured pull-down binding Z-score on TO-3-N3-2 (biotin conjugate) for GGAAUAAGUAUGAUACUUACCUG [U1snRNP5ss-6] please.
## Output 0.331

## Input Provide measured pull-down binding Z-score on TO-3-N3-2 (biotin conjugate) for UGCAUUUCUUACCUAGAGUUUUUAGUGCA [DMSMaPseq_invitro_SARS-CoV-2_Motif_163] please.
## Output -0.416

## Input Provide measured pull-down binding Z-score on TO-3-N3-2 (biotin conjugate) for UCCCAUGAGGGG [IAV_invivo_HA_4_Motif_6+IAV_invivo_HA_4_Motif_6] please.
## Output -0.725

## Input Provide measured pull-down binding Z-score on TO-3-N3-2 (biotin conjugate) for AGAUGAAAUGCCUUUGAUUU [hsa-mir-3658] please.
## Output -0.388

## Input Provide measured pull-down binding Z-score on TO-3-N3-2 (biotin conjugate) for UCCACAAGGAGGGGAUGACCCUUGUGGG [hsa-mir-4437] please.
## Output 3.06

## Input Provide measured pull-down binding Z-score on TO-3-N3-2 (biotin conjugate) for ACAGAAUGCUGU please.
## Output -0.472

## Input Provide measured pull-down binding Z-score on TO-3-N3-2 (biotin conjugate) for CCAAGACAUGUGAUCUGCACCUCUGAAGACAUGCUUAACCCUAAUUAUGAAGAUUUACUCAUUCGUAAGUCUAAUCAUAAUUUCUUGG [DMSMaPseq_invitro_SARS-CoV-2_Multi_33_ComplexLevel_1] please.
## Output -0.101

## Input Provide measured pull-down binding Z-score on TO-3-N3-2 (biotin conjugate) for CUUGAUUUAAAUGUCCAUACAAUUAAG [hsa-mir-124-1] please.
## Output -0.142

## Input Provide measured pull-down binding Z-score on TO-3-N3-2 (biotin conjugate) for CUCUAGACUCUAUUAUAGUUUCCUGAG [hsa-mir-558] please.
## Output -0.582

## Input Provide measured pull-down binding Z-score on TO-3-N3-2 (biotin conjugate) for UCAGGGAGAAAGUGCAUACAGCCCCUG [hsa-mir-328] please.
## Output -0.166

## Input Provide measured pull-down binding Z-score on TO-3-N3-2 (biotin conjugate) for UGCUAUUAGAAAGUAAUGGCA [hsa-mir-548ba] please.
## Output 0.507
